- Test system: Escherichia coli TOP10
- protocolText: shrunken log2 fold change of peptide-encoding DNA abundance (4.5 h post-induction vs induction); higher = less antimicrobial activity (less host growth inhibition)
- statedConditions: time post-induction: 4.5 h; library: site-saturation at positions 5, 18, 19, 20
parameter: shrunken log2 fold change
Just the number, please, no unit after it.

-- ask Fill in the recorded shrunken log2 fold change for this sequence, with Escherichia coli TOP10 as test system: `RRIRHRPPRLPRPRPRPEPLPRP`
-- reply 0.0544

-- ask Fill in the recorded shrunken log2 fold change for this sequence, with Escherichia coli TOP10 as test system: `RRIRHRPPRLPRPRPRPIVSPRP`
-- reply -0.0219

-- ask Fill in the recorded shrunken log2 fold change for this sequence, with Escherichia coli TOP10 as test system: `RRIRYRPPRLPRPRPRPNFRPRP`
-- reply -0.425

-- ask Fill in the recorded shrunken log2 fold change for this sequence, with Escherichia coli TOP10 as test system: `RRIRDRPPRLPRPRPRPSQCPRP`
-- reply -0.034

-- ask Fill in the recorded shrunken log2 fold change for this sequence, with Escherichia coli TOP10 as test system: `RRIRPRPPRLPRPRPRPLKEPRP`
-- reply -0.228

-- ask Fill in the recorded shrunken log2 fold change for this sequence, with Escherichia coli TOP10 as test system: `RRIRPRPPRLPRPRPRPLAPPRP`
-- reply 0.33

-- ask Fill in the recorded shrunken log2 fold change for this sequence, with Escherichia coli TOP10 as test system: `RRIRNRPPRLPRPRPRPECEPRP`
-- reply -0.0156

-- ask Fill in the recorded shrunken log2 fold change for this sequence, with Escherichia coli TOP10 as test system: `RRIRSRPPRLPRPRPRPWWCPRP`
-- reply 0.0769

-- ask Fill in the recorded shrunken log2 fold change for this sequence, with Escherichia coli TOP10 as test system: `RRIRIRPPRLPRPRPRPYEGPRP`
-- reply -0.00931

-- ask Fill in the recorded shrunken log2 fold change for this sequence, with Escherichia coli TOP10 as test system: `RRIRHRPPRLPRPRPRPNVYPRP`
-- reply -0.149

-- ask Fill in the recorded shrunken log2 fold change for this sequence, with Escherichia coli TOP10 as test system: `RRIRHRPPRLPRPRPRPKNAPRP`
-- reply -0.223

-- ask Fill in the recorded shrunken log2 fold change for this sequence, with Escherichia coli TOP10 as test system: `RRIRTRPPRLPRPRPRPREAPRP`
-- reply 0.388

-- ask Fill in the recorded shrunken log2 fold change for this sequence, with Escherichia coli TOP10 as test system: `RRIRLRPPRLPRPRPRPCKEPRP`
-- reply -0.0177

-- ask Fill in the recorded shrunken log2 fold change for this sequence, with Escherichia coli TOP10 as test system: `RRIRVRPPRLPRPRPRPNKPPRP`
-- reply -0.0479

-- ask Fill in the recorded shrunken log2 fold change for this sequence, with Escherichia coli TOP10 as test system: `RRIRSRPPRLPRPRPRPIMAPRP`
-- reply 0.163

----------
- System: Escherichia coli TOP10;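 further: peptides expressed intracellularly from a pBAD plasmid library in pooled LB shake-flask culture, induced with 0.3% L-arabinose, DNA abundance read by NGS, three biological replicates, DESeq2 with apeglm shrinkage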
- protocolText: shrunken log2 fold change of peptide-encoding DNA abundance (4.5 h post-induction vs induction); higher = less antimicrobial activity (less host growth inhibition)
- statedConditions: time post-induction: 4.5 h; library: site-saturation at positions 5, 18, 19, 20
Mark class 0 for shrunken log2 fold change values under -0.2, and class 1 for everything at or above.

-- ask Tell me whether shrunken log2 fold change is at least -0.2 here: `RRIRDRPPRLPRPRPRPVNHPRP`
-- reply class 0

-- ask Tell me whether shrunken log2 fold change is at least -0.2 here: `RRIRDRPPRLPRPRPRPMLCPRP`
-- reply class 1

-- ask Tell me whether shrunken log2 fold change is at least -0.2 here: `RRIRVRPPRLPRPRPRPKTKPRP`
-- reply class 1

-- ask Tell me whether shrunken log2 fold change is at least -0.2 here: `RRIRKRPPRLPRPRPRPRVAPRP`
-- reply class 1

-- ask Tell me whether shrunken log2 fold change is at least -0.2 here: `RRIRDRPPRLPRPRPRPGAQPRP`
-- reply class 1

-- ask Tell me whether shrunken log2 fold change is at least -0.2 here: `RRIRDRPPRLPRPRPRPREWPRP`
-- reply class 1

-- ask Tell me whether shrunken log2 fold change is at least -0.2 here: `RRIRERPPRLPRPRPRPWPDPRP`
-- reply class 1

-- ask Tell me whether shrunken log2 fold change is at least -0.2 here: `RRIRVRPPRLPRPRPRPFDMPRP`
-- reply class 1

-- ask Tell me whether shrunken log2 fold change is at least -0.2 here: `RRIRFRPPRLPRPRPRPLWQPRP`
-- reply class 0

-- ask Tell me whether shrunken log2 fold change is at least -0.2 here: `RRIRIRPPRLPRPRPRPMNIPRP`
-- reply class 1

-- ask Tell me whether shrunken log2 fold change is at least -0.2 here: `RRIRTRPPRLPRPRPRPNTEPRP`
-- reply class 1

-- ask Tell me whether shrunken log2 fold change is at least -0.2 here: `RRIRERPPRLPRPRPRPMKIPRP`
-- reply class 1

-- ask Tell me whether shrunken log2 fold change is at least -0.2 here: `RRIRNRPPRLPRPRPRPVIRPRP`
-- reply class 1

-- ask Tell me whether shrunken log2 fold change is at least -0.2 here: `RRIRGRPPRLPRPRPRPLWFPRP`
-- reply class 1

-- ask Tell me whether shrunken log2 fold change is at least -0.2 here: `RRIRHRPPRLPRPRPRPDCVPRP`
-- reply class 0
